system: varicella zoster virus (VZV) YS viral strain; test: VZV plaque reduction in tissue culture, YS strain; assay type: cell-based; conditions: Human alphaherpesvirus 3, 120 h; reduce viral plaque formation after 5 days by 50% compared to untreated control, YS viral strain; read-out: EC50 VZV YS
Assign EC50 to each entry below.
The figure you give is taken to be in nM; do not add the unit.

Entry under review: CCOc1ccc(-c2cc3cn([C@H]4C[C@H](O)[C@@H](CO)O4)c(=O)nc3o2)cc1 [Example 15] . Reported EC50?
10

Same for CCCCCOc1ccc(-c2cc3cn([C@H]4C[C@H](O)[C@@H](CO)O4)c(=O)nc3o2)cc1 [Example 17]
2

Same for CCCCCCCCCCc1cc2cn([C@H]3C[C@H](O)[C@@H](CO)O3)c(=O)nc2o1 [Ex2 WO 98/49177, reference compound]
8

Same for O=c1nc2oc(-c3ccc(Cl)cc3)cc2cn1[C@H]1C[C@H](O)[C@@H](CO)O1 [Example 11]
80

Same for CCCCCCOc1ccc(-c2cc3cn([C@H]4C[C@H](O)[C@@H](CO)O4)c(=O)nc3o2)cc1 [Example 18]
2

Same for CCCCCCCOc1ccc(-c2cc3cn([C@H]4C[C@H](O)[C@@H](CO)O4)c(=O)nc3o2)cc1 [Example 19]
2

---

system: human embryonic lung cells; assay: Cytotoxicity to human embryonic lung cells; format: cell-based; settings: minimum cytotoxic concentration to human embryonic lung cells
observable: MCC

Entry under review: Cc1ccc(-c2cc3cn([C@H]4C[C@H](O)[C@@H](CO)O4)c(=O)nc3o2)cc1 . Reported MCC?
>200 µM

Same for O=c1nc2oc(-c3ccccc3)cc2cn1[C@H]1C[C@H](O)[C@@H](CO)O1
>200 µM
